Where do these numbers come from? They come from PubChem BioAssay AID485344.

Target: D(2) dopamine receptor (Homo sapiens)
Experiment: HTS Assay for Allosteric Antagonists of the Human D2 Dopamine Receptor: Primary Screen for Antagonists
Conditions: HEK293 TREx D2 cells, calcium flux, dopamine EC80; at 10 µM
Among all 340,000 compounds or so, about 6,900 (2%) were called active. No stated cut-off is given here; in the data, active means inhibition above about 30%; inactive means below that, where a call was filed. This is one part of a sample in which actives are shown more often than they occur.
Valid outcomes are listed here; reply with one: 1 = active, 0 = inactive

>  <compound>
Cc1ccc(C2CN(C)CC2C(=O)c2ccc(F)cc2)cc1 (stereo not given)

>  <group.label>
1

$$$$
>  <compound>
COc1ccc(C(=O)C2CN(C)CC2C(=O)c2ccc(OC)cc2)cc1 (stereo not given)

>  <group.label>
0

$$$$
>  <compound>
CCc1ccc(OCC(=O)N2CCN(CC(=O)Nc3ccccc3Cl)CC2)cc1

>  <group.label>
0

$$$$
>  <compound>
C[C@]12CC[C@H](O)C[C@H]1CC[C@@H]1C2CC[C@]2(C)[C@@H](C3=CC(=O)OC3)[C@@H](O)C[C@]12O (stereo not given in full)

>  <group.label>
0

$$$$
>  <compound>
COC(=O)C1=C(c2ccc(F)cc2OCc2ccccc2)C[C@@H]2CC[C@H]1N2C(=O)NCc1ccc(Cl)cc1

>  <group.label>
0

$$$$
>  <compound>
COC(=O)C1=C(c2ccc(F)cc2OCc2ccccc2)C[C@@H]2CC[C@H]1N2C(=O)NCc1ccc2[nH]ccc2c1

>  <group.label>
0

$$$$
>  <compound>
O=C(O)CCn1cc(C=C2C(=O)NC(=S)NC2=O)c(-c2cccc(Br)c2)n1

>  <group.label>
0

$$$$
>  <compound>
Cn1c(O)c(C(=Nc2ccc(F)cc2)c2ccccc2)c(=O)n(C)c1=O

>  <group.label>
0

$$$$
>  <compound>
Fc1ccc(N2CCN(Cc3ccc4c(c3)OCO4)CC2)cc1

>  <group.label>
1

$$$$
>  <compound>
NCC(O)c1ccc(O)cc1 (stereo not given)

>  <group.label>
1

$$$$

Record lookup: outcome of this test for COc1ccccc1CN1CCN(C(=O)Cc2ccccc2)CC1 ?
0

Record lookup: outcome of this test for COc1ccc(CN2CCN(c3ccccc3F)CC2)c(OC)c1 ?
1

Record lookup: outcome of this test for c1cncc(CNC2=NCCC2)c1 ?
0

Record lookup: outcome of this test for COC(=O)C1=C(c2cccc(OCc3ccccc3)c2)C[C@@H]2CC[C@H]1N2C(=O)NNCc1ccccc1 ?
0

Record lookup: outcome of this test for CCc1cccc2c(C#N)cn(CC(=O)N3CCOCC3)c12 ?
0

Record lookup: outcome of this test for Oc1cc2c(cc1CN1CCN(c3ccccc3)CC1)OCO2 ?
1

Record lookup: outcome of this test for CN1CCC(N(C)Cc2cccnc2)CC1 ?
0

Record lookup: outcome of this test for O=C(Cc1ccccc1[N+](=O)[O-])N1CCN(Cc2ccc3c(c2)OCO3)CC1 ?
0

Record lookup: outcome of this test for COC(=O)C1=C(c2ccc(Cl)c(C(F)(F)F)c2)C[C@@H]2CC[C@H]1N2C(=O)NC(C)C ?
0

Record lookup: outcome of this test for COc1ccc(CNCCc2c[nH]c3ccccc23)cc1OC ?
0
